// provenance: BigSolDB 2.1

conditions: in isopropanol, 290.65 K
Metric name: solubility (mole fraction)

input: Please look up its solubility (mole fraction): CC1=NN(c2ccc(C)cc2)C(=O)C1
output: 0.0184

====

conditions: in methanol, 293.15 K
Metric name: solubility (mole fraction)
API doc: respond with a numeric literal and nothing else, no unit.

input: Please look up its solubility (mole fraction): CC1=NN(c2ccc(C)cc2)C(=O)C1
output: 0.0262

====

conditions: in isopropanol, 288.15 K
Metric name: solubility (mole fraction)
API doc: respond with a numeric literal and nothing else, no unit.

input: Please look up its solubility (mole fraction): CC1=NN(c2ccc(C)cc2)C(=O)C1
output: 0.0168
